Listing: hERG current change (%, negative = inhibition) at 1uM of selected compounds
- assayed.system: human ether-à-go-go-related gene (hERG) potassium channel (human, UniProt Q12809)
- Sequence (Q12809 whole entry, looked up): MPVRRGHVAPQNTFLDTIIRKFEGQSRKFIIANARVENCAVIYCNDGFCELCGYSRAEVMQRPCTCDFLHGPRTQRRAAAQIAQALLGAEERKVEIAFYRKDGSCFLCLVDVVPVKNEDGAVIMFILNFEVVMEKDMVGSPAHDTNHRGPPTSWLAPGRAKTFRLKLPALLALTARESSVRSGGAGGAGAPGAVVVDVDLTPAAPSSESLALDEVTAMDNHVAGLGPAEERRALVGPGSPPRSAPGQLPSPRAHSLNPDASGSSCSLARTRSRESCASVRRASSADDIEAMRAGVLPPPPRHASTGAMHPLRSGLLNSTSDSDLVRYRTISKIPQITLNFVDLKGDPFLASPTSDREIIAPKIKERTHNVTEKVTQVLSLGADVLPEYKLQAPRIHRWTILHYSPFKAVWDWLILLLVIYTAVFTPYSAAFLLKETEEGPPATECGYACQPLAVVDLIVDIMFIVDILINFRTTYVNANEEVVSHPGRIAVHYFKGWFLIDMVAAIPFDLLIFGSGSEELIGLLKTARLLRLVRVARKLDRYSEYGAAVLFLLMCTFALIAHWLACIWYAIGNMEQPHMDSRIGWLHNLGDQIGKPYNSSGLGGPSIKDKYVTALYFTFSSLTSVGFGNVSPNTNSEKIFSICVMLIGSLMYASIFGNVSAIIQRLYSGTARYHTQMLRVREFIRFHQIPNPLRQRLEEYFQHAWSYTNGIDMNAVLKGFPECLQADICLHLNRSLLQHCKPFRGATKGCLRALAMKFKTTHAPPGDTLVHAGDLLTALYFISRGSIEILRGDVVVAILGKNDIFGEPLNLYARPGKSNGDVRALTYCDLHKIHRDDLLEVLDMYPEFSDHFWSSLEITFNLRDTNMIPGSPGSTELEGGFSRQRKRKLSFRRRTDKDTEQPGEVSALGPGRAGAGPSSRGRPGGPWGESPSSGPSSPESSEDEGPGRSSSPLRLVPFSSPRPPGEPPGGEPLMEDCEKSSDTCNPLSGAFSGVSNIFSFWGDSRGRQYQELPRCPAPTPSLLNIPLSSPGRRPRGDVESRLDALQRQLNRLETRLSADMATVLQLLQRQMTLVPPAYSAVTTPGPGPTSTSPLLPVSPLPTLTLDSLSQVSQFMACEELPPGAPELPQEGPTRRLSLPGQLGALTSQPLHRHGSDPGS
- test.details: primary screen, population patch clamp on CHO cells stably expressing hERG; higher = less effect of the substance
About 2,200 (0.71%) of roughly 310,000 compounds showed an effect of 50% or more. The effect is printed as a negative number. The full list was thinned out, with strong results kept by preference.
quantity.measured: hERG current change (%, negative = inhibition) at 1uM (%)

# compound, unit.of.measure, assay.value
rows = [
    ("O=C(NC(=S)Nn1cnc2c(cnn2-c2ccccc2)c1=O)c1ccc(Cl)cc1", "%", 11.4),
    ("COc1ccc(C2CC(=O)n3c(nc4ccccc43)S2)cc1OC (centres unmarked)", "%", 12.9),
    ("O=C(COC(=O)C1CCCCC1)Nc1ccccc1OC(F)F", "%", 12.3),
    ("CCC(Oc1ccc2c(c1)C(=O)CC(C)(C)O2)C(=O)NCCN1CCCCCC1.O=C(O)C(=O)O (centres unmarked)", "%", -9.15),
    ("Clc1ccc(SCCOCCN2CCCCC2)cc1.O=C(O)C(=O)O", "%", -61.1),
    ("CC(C)n1cnc2c(NCc3ccccc3)nc(NCc3ccccc3)nc21", "%", 10.4),
    ("COc1ccc(-c2nnc3ccc(SCC(=O)N4CCCCC4)nn23)cc1OC", "%", 6.34),
    ("CC(C)n1cnc2c(N(C)c3ccccc3)nc(N(CCN(C)C)Cc3ccccc3)nc21", "%", -58.5),
    ("O=C1CCCc2c1nn(-c1ccccc1)[n+]2[O-]", "%", 6.47),
    ("CC(C)CC(=O)Nc1cc2nn(-c3ccccc3)nc2cc1Cl", "%", -0.947),
    ("Cc1ccc(N(C(=O)c2ccccn2)C2(C(=O)NC3CCCC3)CCCCC2)cc1", "%", 16.9),
    ("COc1ccc(N2CCN(CC(O)c3c[nH]c4ccc(OC)cc34)CC2C)cc1 (centres unmarked)", "%", -50.6),
    ("CCOC(=O)Cn1nnnc1C(CC)N(Cc1ccccc1)Cc1cc2cc(C)ccc2[nH]c1=O (centres unmarked)", "%", -2.05),
    ("COc1cccc(C(=O)Nc2cccc(-c3nc4ncccc4o3)c2C)c1", "%", 12.6),
    ("Cl.Clc1ccc(SCCOCCN2CCc3ccccc3C2)cc1", "%", 8.68),
    ("COC(=O)C1=C(C)N(C)C(=O)NC1c1c(O)ccc2ccccc12 (centres unmarked)", "%", 6.78),
    ("COc1cc(N(Cc2ccccc2)Cc2ccccc2)c2ncn(C(C)C)c2c1", "%", 8.78),
    ("COc1ccc2[nH]cc(C(O)CN3CCC(C(N)=O)CC3)c2c1 (centres unmarked)", "%", 11.1),
    ("CCOc1cc(CO)cc(Br)c1OCC(=O)Nc1ccccc1C", "%", 6.36),
    ("COc1ccc(CCN(C(=O)/C=C/C(=O)O)C2CC(=O)N(c3ccccc3)C2=O)cc1 (centres unmarked)", "%", 8.45),
]

Values compiled from paper PMC4336329.
